# TEST: chemical genetic growth profiling, strain panel (AID 1159580);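 also: tested at 20 µM; growth read once vehicle control cultures reached saturation at 30 °C; 1 = growth at the plate median or of vehicle wells; lower values mean less growth of the strain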
# TEST_PARAMETERS: S. cerevisiae deletion strains, growth OD, locus YNL006W, strain LST8, hits give low values
Hit rate of the full screen: of about 5,500 compounds, about 2,000 (36%) were called active. Inconclusive results (about 18%) are left out. The list shows a part of the results.
MEASUREMENT_LABEL: normalized growth
Give bare numbers.

COMPOUND	normalized growth
COc1ccc(Nc2nc(NC(=O)Nc3ccc(Cl)cc3)n[nH]2)cc1	1.02
CN(C)c1ccc(/C=C/c2ccc3ccccc3[n+]2C)cc1	0.979

Your task in this section: give normalized growth for each listed record.
1. C[C@@H](Nc1ncnc2sc3c(c12)CCCC3)c1ccccc1
2. CC(C)(C)C1=C(C#N)C(c2c(Cl)cccc2Cl)C(C#N)=C(N)O1 (stereo unspecified)
3. Cc1ccc(-c2nc(NS(=O)(=O)c3cccc4nonc34)sc2C)cc1Cl
4. O=C(NNc1ccccc1)c1cc(-c2ccc(Cl)cc2)oc1C(F)(F)F
5. N#Cc1cccc(CSc2nc3ccc(C(F)(F)F)cc3[nH]2)c1
6. Cc1c(S(=O)(=O)Nc2cccc([N+](=O)[O-])c2)sc2ccc(Cl)cc12

1. 0.956
2. 0.975
3. 0.967
4. 0.96
5. 0.97
6. 0.966

Please go through the list and note normalized growth for each compound.
1. C/C(=N/NC(=S)NCC(C)(C)C)c1cc(F)cc(Cl)c1O
2. O=S(=O)(Nc1cc(Cl)c(Cl)cc1Cl)c1cc(C(F)(F)F)cc(C(F)(F)F)c1
3. O=S(=O)(NCc1ccc(C(F)(F)F)cc1)c1cc(Br)c(Br)s1

0.972
0.966
0.98

----------
# TEST: chemical genetic growth profiling, strain panel (AID 1159580)
# TEST_PARAMETERS: S. cerevisiae deletion strains, growth OD, locus YPR119W, strain clb2, hits give low values
Out of some 5,500 compounds screened, about 2,000 (36%) were called active. Not shown: some 18% with an inconclusive outcome. The list shows a part of the results.
For each entry below, report its normalized growth value.
One number for each entry.

In the examples that follow, each entry is paired with its recorded normalized growth.
COMPOUND	normalized growth
NCCCC(=O)O	1.02
NCCCCC(=O)O	0.989
COc1ccc(CCC(=O)c2c(O)cc(O[C@@H]3O[C@H](CO)C(O)[C@H](O)C3O[C@@H]3O[C@@H](C)[C@H](O)[C@@H](O)[C@H]3O)cc2O)cc1O (stereo not given in full)	0.975
COC(=O)/C(C)=C\CC12OC(C)(C)C3CC(C=C4C(=O)c5c(OC)c6c(c(CC=C(C)C)c5OC431)OC(C)(CCC=C(C)C)C=C6)C2=O (stereo not given)	0.992
CC12CCC3C(=CCc4cc(O)ccc43)C1CCC2=O (stereo not given)	1

Provide each entry's normalized growth from the list below.
1. C[C@]12CCC3c4ccc(O)cc4CCC3C1CCC2=O (stereo not given in full)
2. NCCCCCC(=O)O
3. O=C(O)CCCCCCCC(=O)O
4. C[C@]12CCC3c4ccc(OC(=O)CCC(=O)O)cc4CCC3C1CCC2=O (stereo not given in full)
5. C[C@]12CCC3c4ccc(OC(=O)c5ccccc5)cc4CCC3C1CCC2=O (stereo not given in full)

1: 1; 2: 1.01; 3: 0.987; 4: 1.01; 5: 1.01

----------
# TEST: chemical genetic growth profiling, strain panel (AID 1159580)
# TEST_PARAMETERS: S. cerevisiae deletion strains, growth OD, locus YJL095W, strain BCK1
The campaign covered roughly 5,500 compounds. About 2,000 (36%) were called active. Another 18% or so got no clear call; they are omitted. Rule as the data show it: active = normalized growth mostly below about 0.91 (no sharp cut-off); inconclusive = no clear call, values can overlap the other calls; inactive = mostly above about 0.92. This is one part of the list.
Response enum: yes (active), no (inactive)

MOLECULE	GROUP
CC1=CC(=O)N(c2ccc(OC(F)(F)F)cc2)C1=O	yes

For COc1ccc(-c2csc(-c3cccnc3)n2)cc1 , what call appears in the results of this test?
no

Hey, what did the test say about Clc1ccccc1-c1csc(-c2cccnc2)n1 ?
yes

Tell me the assay call for COc1ccc(Nc2nc(NC(=O)Nc3ccc(Cl)cc3)n[nH]2)cc1 please.
no

Which outcome was entered for the molecule Cc1noc(C)c1S(=O)(=O)Nc1csc(C(F)(F)F)c1-c1ccccc1 in this test?
no

Short answer needed: outcome of this test for COC(=O)[C@@H]1C[C@H](OC(C)=O)C(=O)[C@H]2[C@@]1(C)CC[C@H]1C(=O)O[C@H](c3ccoc3)C[C@]21C ?
no

----------
Exercise: state measured normalized growth for each of the compounds provided.
# TEST: chemical genetic growth profiling, strain panel (AID 1159580);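 also: tested at 20 µM; growth read once vehicle control cultures reached saturation at 30 °C; 1 = growth at the plate median or of vehicle wells; lower values mean less growth of the strain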
# TEST_PARAMETERS: S. cerevisiae deletion strains, growth OD, locus YOR080W, strain dia2, hits give low values
The whole screen tested about 5,500 compounds, of which about 2,000 (36%) were called active. Not shown: some 18% with an inconclusive outcome. The list shows a part of the results.
Numbers only.

Record normalized growth for all entries; do not skip any.
1. CC1(C)C(=O)[C@@H]2O[C@@H]2[C@@]2(C)C1C[C@@H](O)[C@]1(C)C2CC[C@@]2(C)[C@H](c3ccoc3)OC(=O)C3OC321 (some centres not stated)
2. CC(=O)O[C@@H]1CC2C(C)(C)[C@H](O)C=C[C@]2(C)C2CC[C@@]3(C)[C@H](c4ccoc4)OC(=O)C4OC43[C@@]21C (some centres not stated)

[0.988, 1.03]

Record normalized growth for all entries; do not skip any.
1. CC(=O)O[C@H]1CC[C@@]2(C)C(C[C@@H](OC(C)=O)[C@]3(C)C2CC[C@@]2(C)[C@H](c4ccoc4)OC(=O)[C@H]4O[C@]423)C1(C)C (some centres not stated)
2. CC(=O)O[C@@H]1CC2C(C)(C)[C@@H](O)CC[C@]2(C)C2CC[C@@]3(C)[C@H](c4ccoc4)OC(=O)[C@H]4O[C@]43[C@@]21C (some centres not stated)
3. Clc1ccc(C(c2ccccc2Cl)C(Cl)Cl)cc1 (configuration not stated)
4. COC(=O)[C@H](c1ccccc1Cl)N1CCc2sccc2C1
5. CC(=O)O[C@H]1C[C@@H](OC(C)=O)C(C)(C)C2C[C@@H](O)[C@]3(C)C(CC[C@@]4(C)[C@H](c5ccoc5)OC(=O)[C@H]5O[C@]543)[C@]21C (some centres not stated)

0.996
0.99
0.969
0.994
0.98

----------
# TEST: chemical genetic growth profiling, strain panel (AID 1159580);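 also: tested at 20 µM; growth read once vehicle control cultures reached saturation at 30 °C; 1 = growth at the plate median or of vehicle wells; lower values mean less growth of the strain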
# TEST_PARAMETERS: S. cerevisiae deletion strains, growth OD, locus YDL132W, strain cdc53, hits give low values
The whole screen tested about 5,500 compounds, of which about 2,000 (36%) were called active. Another 18% or so got no clear call; they are omitted. The list shows a part of the results.
MEASUREMENT_LABEL: normalized growth
Answers are plain numbers.

See these solved cases before continuing.
SMILES_STRING	normalized growth
N#Cc1ccc(Oc2sccc2[N+](=O)[O-])cc1	0.942
O=[N+]([O-])c1ccsc1Oc1cccc(C(F)(F)F)c1	0.946

Now consider the entry below.
// fetch normalized growth given entry COc1ccc2c(c1)CCc1sc(NC(=O)c3ccco3)nc1-2
0.97

----------
# TEST: chemical genetic growth profiling, strain panel (AID 1159580);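 also: tested at 20 µM; growth read once vehicle control cultures reached saturation at 30 °C; 1 = growth at the plate median or of vehicle wells; lower values mean less growth of the strain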
# TEST_PARAMETERS: S. cerevisiae deletion strains, growth OD, locus YOR001W, strain rrp6, hits give low values
The whole screen tested about 5,500 compounds, of which about 2,000 (36%) were called active. Roughly 18% stayed inconclusive and do not appear here. Some of the results follow. Where a SMILES comes first, the peptide text is derived from it.
For each entry below, report its normalized growth value.
Numbers only.

COMPOUND	normalized growth
CC(=O)N[C@@H](CC(=O)O)C(=O)N[C@@H](CCC(=O)O)C(=O)O (Ac-Asp-Glu-OH)	1.01
CC1C/C=C/C=C/C=C/C=C/C(O[C@@H]2O[C@H](C)[C@@H](O)[C@H](N)[C@@H]2O)CC2OC(O)(CC(O)CC3OC3/C=C/C(=O)O1)CC(O)C2C(=O)O (stereo partly drawn)	1.01
CC1CCC(NC(=O)N(CCCl)N=O)CC1 (stereo not drawn)	0.084
CC1(C)C(=O)[C@@H]2O[C@@H]2[C@@]2(C)C1C[C@@H](O)[C@]1(C)C2CC[C@@]2(C)[C@H](c3ccoc3)OC(=O)C3OC321 (stereo partly drawn)	1.02

Please report normalized growth for every entry that follows.
1. CC(=O)Oc1ccc2c(c1)CCC1C2CC[C@]2(C)C(=O)CCC12 (stereo partly drawn)
2. COc1ccc2c(c1)OCC(Cc1ccc(OC)c(OC)c1)C2=O (stereo not drawn)
3. N[C@@H](C(=O)O)[C@@H](O)[C@H](O)[C@H](O)CO
4. O=C(O)CCC1NCC2CC1CN1CCCCC21 (stereo not drawn)

0.972
0.923
1.05
1.01
